- System: KM12
- ASSAY DETAILS: NCI tumour cell line growth inhibition, 48 h
Activity calls are given as the source filed them. Cut-off read from the data, not from the text of the source: active = GI50 up to about 1.1 µM and inactive = higher.
QUANTITY MEASURED: GI50

For `N=C(N)NS(=O)(=O)c1ccc(N/N=C2/CCOC2=O)cc1` the molecule record lists GI50 as > 100 µM (inactive)

Recorded GI50 (molecule `N#Cc1c(N)c2c(c(-c3ccccc3)c1-c1ccccc1)C(=O)N(Nc1ccccc1)C2=O` ): 24.2 µM (inactive)

For record `O=C1Oc2ccccc2C(=O)/C1=C\Nc1nc(-c2ccc(O)c(O)c2)cs1` the listed GI50 is 9.08 µM (inactive)

Entry under test: `O=C(c1ccccc1)C(C(=O)c1ccccc1)C1(O)C(=O)c2ccccc2C1=O` . Its GI50 was 51.5 µM (inactive)

Input COc1cc(C2SCC(=O)N2c2ccc(-c3ccc(-n4c(-c5ccccc5)nc5ccccc5c4=O)cc3)cc2)cc(OC)c1OC (stereo not given) . Output GI50: 12.6 µM (inactive)

GI50 reported for this molecule CC1(Cl)CC2OC3(Br)C=CC(C)(O)C2(CC1Br)C3(C)C (stereo not given) : > 100 µM (inactive)

response.value for `Cc1c2c3cc(O)ccc3nc-2n(C)c2ccccc12` (field: GI50) = 1.69 µM (inactive)

Noted for `C=CCc1cccc(/C=N\N/C(N)=N/O)c1O` : its GI50 reads 4.36 µM (inactive)

Reported GI50 of `COc1cccc(Nc2nc(-c3cccs3)nc3cc(OC)c(OC)cc23)c1` : 30.4 µM (inactive)

GI50 in this record for O=C1c2ccccc2CC12Cc1ccc3c(c1C2)CCC3 (stereo not given) : 24.4 µM (inactive)

----------
- System: T47D
- ASSAY DETAILS: NCI tumour cell line growth inhibition, 48 h
The source made the active and inactive calls. No stated cut-off is given here; in the data, active = GI50 up to about 1.1 µM and inactive = higher.
QUANTITY MEASURED: GI50

Recorded GI50 (compound NC(CC1=CCC=CC1)C(=O)O (stereo not given) ): > 100 µM (inactive)

GI50 in this record for `O=C(O)/C(Cc1ccnc2ccccc12)=N\O` : > 100 µM (inactive)

# compound CCOP(=O)(OCC)C(C(=O)OC)C(=O)C(=O)Nc1cccc(O)c1 (stereo not given) ; its GI50 = > 100 µM (inactive)

# compound `S=c1cc(-c2ccc3c(c2)OCO3)s[nH]1` ; its GI50 = 89.7 µM (inactive)

Lab book: GI50 of Cc1cc(O)c(C=O)c2c1C(=O)Oc1c(CO)c(O)c3c(c1O2)C(O)OC3=O (stereo not given) noted as 54.5 µM (inactive)

CC(=O)OCC1OC(Nn2c(=O)[nH]c3ccccc3c2=O)C(OC(C)=O)C(OC(C)=O)C1OC(C)=O (stereo not given) yielded GI50 of 35.5 µM (inactive)

For CCOC(=O)/C(C#N)=C/c1ccc2c(c1)CC1(C2)Cc2cc(CC)c(C(C)O)cc2C1 (stereo not given) the compound record lists GI50 as 27.9 µM (inactive)

response.value for OC1c2ccccc2[C@@H]2[C@H]1[C@@H](c1ccccc1)C1(Cc3ccccc3C1O)[C@H]2c1ccccc1 (stereo not given in full) (field: GI50) = 6.71 µM (inactive)

// field: GI50; key: Cc1cc(C23OC4COC(C)(C)OC4C2OC(C)(C)O3)nc2ccccc12 (stereo not given) ; value = > 100 µM (inactive)

Noted for `O=c1cc(-c2cc(O)c(O)c(-c3c(O)cc4oc(-c5ccc(O)c(O)c5)cc(=O)c4c3O)c2)oc2cc(O)cc(O)c12` : its GI50 reads 11.3 µM (inactive)

----------
- Test system: TK-10
- ASSAY DETAILS: NCI tumour cell line growth inhibition, 48 h
Active and inactive are the calls of the source. Rule as the data show it: active = GI50 up to about 1.1 µM and inactive = higher.
QUANTITY MEASURED: GI50

The molecule identified as [O-][S+]1CSCS1 (configuration not stated) registered its GI50 at > 100 µM (inactive)

Sample CCOC(=O)CCC(C(=O)OCC)n1nnc2cc(Nc3c(C)[n+]([O-])c4cc(F)c(OCC)cc4[n+]3[O-])ccc21 (configuration not stated) ; GI50 observed: 48.3 µM (inactive)

Value of measured GI50 for the entry `O=C(CCN1CCC(CCO)CC1)Nc1ccc2c(c1)C(=O)c1ccc(NC(=O)CCN3CCC(CCO)CC3)cc1C2=O` : 24.7 µM (inactive)

Lab note: measured GI50 of OC1(c2ccccc2)CC2CCC(C1)N2CCc1ccccc1 (configuration not stated) was > 100 µM (inactive)

So, COC(=O)C1=C(C)N2CCOC2(C)C(C(=O)OC)C1c1ccc[nH]1 (configuration not stated) ? Its GI50 was > 100 µM (inactive)

For this molecule ( `S=c1cc(-c2ccc3c(c2)OCO3)s[nH]1` ), measured GI50 is > 100 µM (inactive)

Sample `COC1(OC)CCCc2c1no[n+]2[O-]` ; GI50 observed: > 100 µM (inactive)

----------
- Tested on: IGROV-1
- ASSAY DETAILS: NCI tumour cell line growth inhibition, 48 h
The source made the active and inactive calls. Cut-off read from the data, not from the text of the source: active = GI50 up to about 1.1 µM and inactive = higher.
QUANTITY MEASURED: GI50

Recorded result, CCOC(=O)NC(C(=O)OCC)C(F)(F)F (stereo not given) , GI50: > 100 µM (inactive)

GI50 reading for CCOc1ccc2nc(NC(=O)C(=O)C3C(=O)C(CC4C(=O)c5ccccc5C4=O)C(=O)CC3(C)C)sc2c1 (stereo not given) : 44 µM (inactive)

# compound O=[N+]([O-])c1ccccc1C1SCc2nc3ccccc3n21 (stereo not given) ; its GI50 = 36.9 µM (inactive)

GET /value?item= CC1=NN2C=Nc3c(c(-c4ccc(Cl)cc4)cn3-c3ccc(C)cc3)C2N1 (stereo not given) &field=GI50 returns 76.6 µM (inactive)

The compound listed as `COc1cc2c(cc1OC)[C@H]1C(=O)c3cc4c(cc3[C@H]1N(C)C2=O)OCO4` shows GI50 equal to 11.2 µM (inactive)

Input `CCOC(=O)c1cc(-c2ccc(OC)c(OC)c2)c[nH]1` . Output GI50: > 10 µM (inactive)

// GI50 lookup, compound = `O=[N+]([O-])c1ccc(C2=NN(c3ccccc3)C[N+](c3ccc(Br)cc3)=N2)cc1` , result: > 100 µM (inactive)

# GI50 (compound: CC(=O)OC1CC2(C)C(=CC1C1SCCS1)CCC1C2CCC2(C)C(OC(C)=O)CCC12 (stereo not given) ) is > 100 µM (inactive)

Form field GI50, entry `COC(=O)/C=C\n1c(C)cc(=O)[nH]c1=O` : > 100 µM (inactive)

Recorded GI50 (compound O=C1CC2CCC(C1)[S+]2[O-] (stereo not given) ): > 100 µM (inactive)

Measured GI50 of `Cc1ccc2cc3cccc(C(=O)NCCN(C)C)c3nc2c1` : 1.42 µM (inactive)

In plain terms, `Nc1ccc2nc(-c3cccc(C(F)(F)F)c3)cc(O)c2c1` has a documented GI50 of 33.5 µM (inactive)

Value of measured GI50 for the entry `COc1cc(/C=C/C(=O)c2ccc(NS(=O)(=O)c3cc([N+](=O)[O-])ccc3C)cc2)cc(OC)c1OC` : 3.88 µM (inactive)

Note to self: GI50 recorded for `Cc1ccc(/N=N/NCCCCN)cc1` was > 100 µM (inactive)

Lab note: `CC(C)[Si](OC1=C(C(=O)N(C)c2ccccc2Cl)CCCCC1)(C(C)C)C(C)C` gave GI50 of > 100 µM (inactive)

----------
- Test system: SF-295
- ASSAY DETAILS: NCI tumour cell line growth inhibition, 48 h
The source made the active and inactive calls. Cut-off read from the data, not from the text of the source: active = GI50 up to about 1.1 µM and inactive = higher.
Your response should consist of one outcome taken from active, inactive

## Task // param item: `O=c1[nH]nc(-c2ccccc2)n1-n1cnnc1` ; yields the recorded call
## Result inactive

## Task What is the recorded call for this compound in the test? COC(=O)C1(CCC(C)=O)CCCCCC1=O (stereo unspecified)
## Result inactive

## Task State the result this test recorded for `CCCCCC(=O)Nc1nc(O)c2[nH]cnc2n1` .
## Result inactive

## Task Name the outcome recorded for `CN(C)NC1=C([N+](=O)[O-])C=NN(c2ccccc2)C1` in the assay.
## Result inactive

## Task Check the results log: what was the call for COC(=S)OC1CC(n2cnc3c(N)ncnc32)OC1CO[Si](C)(C)C(C)(C)C (stereo unspecified) ?
## Result inactive

## Task Could you kindly confirm the outcome this assay logged for `CN(C)CCNC(=O)c1cccc2c1Oc1c(cccc1[N+](=O)[O-])O2` ?
## Result active

## Task Called result for `O=NN(CCCl)C(=O)NC1CCCCC1`
## Result inactive

## Task Can you look up the reported call for `CCc1ccccc1NC(=O)C(=O)CC(=O)c1sc(Nc2ccccc2Cl)nc1C` for me?
## Result inactive

## Task Dear colleague, could you share the recorded outcome for `COC(=O)[C@@H]1C=C[C@H](NC(C)=O)C1` when you have a moment?
## Result inactive

## Task Identify the outcome logged in this assay for the compound shown: `S=c1cc(-c2ccc3c(c2)OCO3)s[nH]1`
## Result inactive

## Task Short answer needed: outcome of this test for Cc1cc(O)c(C=O)c2c1C(=O)Oc1c(CO)c(O)c3c(c1O2)C(O)OC3=O (stereo unspecified) ?
## Result inactive

## Task Assay result, entry `O=P1(c2ccccc2)Nc2ccccc2SSc2ccccc2N1` — outcome?
## Result inactive

## Task For `O=C(O/N=C1/CCCC/C1=C\c1ccccc1)c1ccc(Cl)c(Cl)c1` , what call appears in the results of this test?
## Result inactive

## Task Lab log entry: `COc1ccccc1NC(=O)C1=C(C)NC(C)=C(C(=O)Nc2ccccc2OC)C1c1ccccc1[N+](=O)[O-]` — outcome as called in the assay?
## Result inactive

## Task Which outcome did this test record for the compound `O=C(O)C(O)(c1ccc(-c2ccccc2)cc1)c1ccc(-c2ccccc2)cc1` ?
## Result inactive

## Task Assay result, entry CCc1ccc2c(c1)CC1(C2)Cc2cc3c(cc2C1)C(=O)CC3 (stereo unspecified) — outcome?
## Result inactive

## Task Hi team, can someone confirm the assay call for CCCCCCCCCCC(O)C1CCC(C2CCC(C(O)CCCCC(O)CCCCCC(O)CC3=CC(C)OC3=O)O2)O1 (stereo unspecified) ?
## Result inactive

## Task I'd appreciate the recorded outcome for CCOC(=O)NC(C(=O)OCC)C(F)(F)F (stereo unspecified) from this test.
## Result inactive

## Task Which result was noted for this compound in the test: `CO[C@H]1C[C@@H]2CC[C@@H](C)[C@@](O)(O2)C(=O)C(=O)N2CCCC[C@H]2C(=O)O[C@H]([C@H](C)C[C@@H]2CC[C@@H](OC(=O)C(C)(CO)CO)[C@H](OC)C2)CC(=O)[C@H](C)/C=C(\C)[C@@H](O)[C@@H](OC)C(=O)[C@H](C)C[C@H](C)/C=C/C=C/C=C/1C`
## Result active

## Task So what was the verdict on `COc1ccc(C2=C[C@]3(O)CCCN3C[C@@H]2c2ccc(OC)c(OC)c2)cc1` in this test?
## Result active

## Task Please share the test call associated with `COc1cccc(/C=C2\N=C(Cl)OC2=O)c1O` .
## Result inactive

## Task For `COc1ccc(C(=O)NCCC2=CCCCC2)cc1` , what call appears in the results of this test?
## Result inactive

## Task // param item: CC1(Cl)CC2OC3(Br)C=CC(C)(O)C2(CC1Br)C3(C)C (stereo unspecified) ; yields the recorded call
## Result inactive

## Task What classification did `COc1ccc(OC)c(NC(=O)CCC/C(CC(=O)c2ccc(O)c(OC)c2)=N\NC(=O)C[N+](C)(C)C)c1` end up with in this test?
## Result inactive

## Task Would you mind telling me which call this test gave O=C(c1nc2ccc(Cl)cc2[nH]c1=O)C(O)c1ccco1 (stereo unspecified) ?
## Result inactive

## Task Hi team, can someone confirm the assay call for NC(CC1=CCC=CC1)C(=O)O (stereo unspecified) ?
## Result inactive

## Task GET /call?item= `O=S(=O)(c1cccc(N=C=S)c1)c1cccc(N=C=S)c1` returns the recorded outcome of this test.
## Result inactive

## Task In this assay, the call recorded for `N#Cc1c(-c2ccco2)cc(-c2ccc(N)cc2)[nH]c1=O` was what?
## Result inactive

## Task Look up the recorded call for CC1OC(O[C@H]2CC[C@]3(C=O)[C@H]4CC[C@]5(C)[C@H](C6=CC(=O)OC6)CC[C@]5(O)[C@@H]4C=C[C@]3(O)C2)CC(O)C1O (stereo partly specified) in this test.
## Result active

## Task // return assay outcome for O=C(O)C1CC2(C1)CC(C(=O)O)C2 (stereo unspecified)
## Result inactive

## Task What is the recorded call for this compound in the test? OC1(c2ccccc2)CC2CCC(C1)N2CCc1ccccc1 (stereo unspecified)
## Result inactive

## Task // param item: `CCNC(=O)c1ccc(C)c(/N=N/N(C)C)c1` ; yields the recorded call
## Result inactive

## Task What did this assay record as the result for `CC(=O)OCCc1cc2ccccc2oc1=O` ?
## Result inactive

## Task Hi, sorry to bother you, what did the test record for `COc1cccc2c1CCc1sc(CN3CCN(C)CC3)nc1-2` ?
## Result inactive

## Task Assay result, entry `CCOC(=O)c1ccc(NC(=O)Oc2ccc3c(C)cc(=O)oc3c2)cc1` — outcome?
## Result inactive

## Task # outcome recorded in this test, key = COc1cc(CCCOC2OC(COC3OCC(O)C(O)C3O)C(O)C(O)C2O)cc2cc(-c3ccc4c(c3)OCO4)oc12 (stereo unspecified)
## Result inactive

## Task Test call for this compound, please: CCN1CCC(O)(c2ccc(C)cc2)C(C(=O)c2ccc(C)cc2)C1 (stereo unspecified)
## Result inactive

## Task State the result this test recorded for `COC(=O)c1ccccc1/N=C(/NC1CCCCCC1)NS(=O)(=O)c1ccc(C)cc1` .
## Result inactive

## Task What outcome does the record of this test show for `COc1cccc(Nc2nc(-c3cccs3)nc3cc(OC)c(OC)cc23)c1` ?
## Result inactive

## Task Outcome logged for CCCCCC(C/C=N/N(C)C)C(O)(C(F)(F)F)C(F)(F)F (stereo unspecified) in this assay:
## Result inactive

## Task What is the recorded call for this compound in the test? `CC[N+](C)(CC)Cc1ccccc1[N+](=O)[O-]`
## Result inactive
